Reported values of Kd for individual entries
system-under-test: T1, recombinant human VISTA (His-tagged) (human, UniProt Q9H7M9 33-194)
T1 construct: bought soluble protein (Sino Biological); also called hVISTA; human VISTA polypeptide
assay-procedure: BLI (Octet), 1:1 global fit, human VISTA captured
Give just the number in nM; leave the unit off.

Task item: Fill in the blank: the reported Kd of anti-VISTA clone V4-C27 IgG1 (antibody, V domains shown) VH: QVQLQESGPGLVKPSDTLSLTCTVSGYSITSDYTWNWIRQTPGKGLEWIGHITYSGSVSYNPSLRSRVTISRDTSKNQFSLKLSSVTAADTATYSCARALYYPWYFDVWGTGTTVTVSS VL: EIVLTQSPATLSLSPGERATLSCRASSSVGYIHWYQQKPGQAPRPLIYATYNRATGIPARFSGSGSGTDNTLTISSLEPEDSAVYYCQQWSSYPPITFGGGTKLEVKR is ____.
Reply: 0.119

Task item: Also, anti-VISTA clone V4-C9 IgG1 (antibody, V domains shown) VH: QVQLQESGPGLVKPSDTLSLTCTVSGYSITSDYAWNWIRQTPGKGLEWIGYITYSGYVSYNPSLRSRVTISRDTSKNQFSLKLSSVTAADTAVYSCARALYYPWYFDVWGTGTTVTVSS VL: EIVLTQSPATLSLSPGERATLSCRASSSVGYIHWYQQKPGQAPRPLIYATSNRATGIPARFSGSGSGTDNTLTISSLEPEDSAVYYCQQWSSYPPITFGGGTKLEVKR please.
Reply: 0.125
